Target: T1, UNK ZnF1-3 (human, UniProt Q9C0B0 31-174)
T1 sequence: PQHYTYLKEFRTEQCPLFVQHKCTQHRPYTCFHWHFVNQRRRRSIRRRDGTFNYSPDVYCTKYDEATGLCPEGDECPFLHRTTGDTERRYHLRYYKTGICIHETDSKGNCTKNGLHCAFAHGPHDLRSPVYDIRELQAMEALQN
Assay: nsRBNS (natural sequence RNA bind-n-seq); RBNS binding buffer (assumed for nsRBNS): 25 mM Tris pH 7.5, 150 mM KCl, 3 mM MgCl2, 0.01% Triton X-100, 500 ug/ml BSA, 20 U/ml SUPERase-In, 4 C; UNK is unkempt and MSI1 is Musashi-1; names of the RNAs are library labels; protein concentration not given here; high values mean tight binding
Over roughly 24,000 sequences, “enrichment r” has its median near 0.99; the highest 2% begin near 3.7. Only a selection was taken, and the highest values are over-represented in it overall.
Catalogue of binding signal readings, one per entry.
Number plus unit, in that order.

Examples from the recorded data:
[[record]]
binder = "chr14:67424093:67424094:-_ENSMUSG00000022048_ENSMUST00000022629|mus_hu|FALSE|FALSE (ssRNA) RNA: GGGAGUUCUACAGUCCGACGAUCGAGAGACGGGGUGUGGGGCCCCAAGGGGGACCCCAUGAACUGGCUGCUCCACAGUAACUAUCACAGGCUCUUAAAAAAAAAAACAAAAAAAAAAAAAGGAAGGAAGAAAGAAGUCUCAGACAACAGAGGAUUGAGCAUCA"
measure_name = "binding signal"
assay_value = "20.5 enrichment R"

[[record]]
binder = "23240013_23240133_1240_CDS_ENSG00000136243_ENST00000258742|human|control|control (ssRNA) RNA: GGGAGUUCUACAGUCCGACGAUCACUACCAAAACCAGCCACAGAACUGCCACCUCCAAAGGCUGGGGCCACUGGAGCUCUGACAGGACCUGUUGCCAAGGAAGCUGGAAGUCCUGAAAAUCCAGGUGAUCCAAAACUGGAAGCCAACAGAGGAUUGAGCAUCA"
measure_name = "binding signal"
assay_value = "1.23 enrichment R"


Now consider a different binder.
# input Name the recorded binding signal for 157127611_157127731_2631_3pUTR_ENSMUSG00000026469_ENSMUST00000027741|mouse|control|control (ssRNA) RNA: GGGAGUUCUACAGUCCGACGAUCAUUAAAAGUAGCUUUGUGGAGGAGGUGCUGCUCCAAGCUGCACUUUCCCUGCAAGUGCUGCCAGUGUCUCUGCACUGGCUAUGAAGGAAGGGAAAAACUCUCCAUAGAAACUGACAGAAACAACAGAGGAUUGAGCAUCA .
# output 0.603 enrichment R
